In this section we review reported pIC50 values for a set of compounds.
Target: C-RAF (Homo sapiens, UniProt P04049, Y340E/Y341E)
Construct: His tag (implied by nickel chromatography) (cleaved yes); StrepII tag (cleaved yes); MEK1 substrate from E. coli
Sequence (P04049 whole entry Y340E/Y341E): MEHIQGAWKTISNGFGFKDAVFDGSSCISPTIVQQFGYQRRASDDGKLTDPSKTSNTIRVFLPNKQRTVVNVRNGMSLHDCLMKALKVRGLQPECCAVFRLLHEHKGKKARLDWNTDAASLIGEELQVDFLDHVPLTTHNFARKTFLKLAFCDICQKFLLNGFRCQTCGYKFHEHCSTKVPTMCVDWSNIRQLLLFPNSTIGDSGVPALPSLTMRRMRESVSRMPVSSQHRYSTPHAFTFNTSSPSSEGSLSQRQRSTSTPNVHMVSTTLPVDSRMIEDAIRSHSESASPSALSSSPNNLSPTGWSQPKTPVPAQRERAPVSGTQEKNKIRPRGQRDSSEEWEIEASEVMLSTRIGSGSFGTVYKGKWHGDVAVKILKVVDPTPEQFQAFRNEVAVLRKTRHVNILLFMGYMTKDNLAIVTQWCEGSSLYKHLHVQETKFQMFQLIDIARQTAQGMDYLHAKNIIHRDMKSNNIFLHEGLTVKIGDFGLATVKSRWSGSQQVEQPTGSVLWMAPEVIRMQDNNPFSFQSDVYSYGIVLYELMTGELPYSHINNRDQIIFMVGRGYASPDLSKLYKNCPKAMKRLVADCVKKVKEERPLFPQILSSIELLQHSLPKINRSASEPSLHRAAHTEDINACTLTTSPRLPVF
Sequence (P63104 whole entry partner): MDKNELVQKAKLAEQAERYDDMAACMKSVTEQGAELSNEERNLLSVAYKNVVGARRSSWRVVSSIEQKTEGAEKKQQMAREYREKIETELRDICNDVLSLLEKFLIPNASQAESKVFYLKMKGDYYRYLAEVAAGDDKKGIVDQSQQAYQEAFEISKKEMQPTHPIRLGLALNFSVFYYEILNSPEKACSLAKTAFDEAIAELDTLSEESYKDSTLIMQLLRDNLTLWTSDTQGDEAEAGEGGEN
Assay: In vitro Raf activity determination (Alpha Screen, biotinylated kinase-dead MEK1 substrate), C-Raf
Conditions: c-Raf approximately 4 nM; ATP 1 μM; pre-incubation 60 minutes; reaction 1 hour at room temperature
Text: CRAF cDNA was subcloned as full length protein, with Y340E and Y341E activating mutations, into a baculovirus expression vector for Sf9 insect cell expression. h14-3-3 zeta cDNA was subcloned into a baculovirus expression vector for SF9 insect cell expression. Sf9 cells co-expressing both proteins were lysed and subjected to immobilized nickel chromatography and eluted with Imidazole. A second column (StrepII binding column) was used and eluted with desthiobiotin. […]
Friendly reminder that pIC50 comes from taking -log10 of the concentration in mol/L.

compound: Cc1ncc(NC(=O)c2cnnc(C3CC3)c2)cc1-c1cnc(N2CC(C)(O)C2)c(C#N)c1 [Example 190]
observed_value: 7.54
//
compound: Cc1ncc(NC(=O)c2ccnc(C(C)(C)C#N)c2)cc1-c1cnc(-c2ccc(=O)n(C)c2)c(C#N)c1 [Example 105]
observed_value: 8.56
//
compound: Cc1ncc(NC(=O)c2cc(C(C)(C)N)cc(C(F)(F)F)c2)cc1-c1cnc(N2CCOCC2)c(C#N)c1 [Example 246]
observed_value: 8.73

Task item: For the compound shown here, Cc1ccc(NC(=O)c2cc(C(C)(C)O)ccn2)cc1-c1cnc(N2CC(C)(O)C2)c(C#N)c1 [Example 236] , give the reported pIC50.
Reply: 8.81

Task item: For the compound shown here, Cc1ccc(NC(=O)c2cccc(C(F)(F)F)c2)cc1-c1cnc(Cl)c(C#N)c1 [Example 33] , give the reported pIC50.
Reply: 9.36

Task item: For the compound shown here, Cc1ncc(NC(=O)c2ccnc(C(F)F)c2)cc1-c1cnc(C2CCOCC2)c(C#N)c1 [Example 129] , give the reported pIC50.
Reply: 8.59

* * *

In this section we review reported pIC50 values for a set of compounds.
biological target: C-RAF (Homo sapiens, UniProt P04049, Y340E/Y341E); construct: His tag (implied by nickel chromatography) (cleaved yes); StrepII tag (cleaved yes); MEK1 substrate from E. coli; test: In vitro Raf activity determination (Alpha Screen, biotinylated kinase-dead MEK1 substrate), C-Raf; details: c-Raf approximately 4 nM; ATP 1 μM; pre-incubation 60 minutes; reaction 1 hour at room temperature
Friendly reminder that pIC50 comes from taking -log10 of the concentration in mol/L.

# count of solved cases: 5
smi: COCCNc1ncc(-c2cc(NC(=O)c3ccnc(C4(C#N)CC4)c3)cnc2C)cc1C#N
target_system: C-RAF (Homo sapiens, UniProt P04049, Y340E/Y341E)
pIC50: 9.09
//
smi: Cc1ccc(NC(=O)c2ccnc(C(F)(F)F)c2)cc1-c1cnc(-n2ccc(=O)cc2)c(C#N)c1
target_system: C-RAF (Homo sapiens, UniProt P04049, Y340E/Y341E)
pIC50: 8.78
//
smi: Cc1ncc(NC(=O)c2ccnc(C(C)(C)O)c2)cc1-c1cnc(N(C)C)c(C#N)c1
target_system: C-RAF (Homo sapiens, UniProt P04049, Y340E/Y341E)
pIC50: 8.66
//
smi: Cc1ncc(NC(=O)c2ccnc(C(C)(C)O)c2)cc1-c1cnc(N2CC(C)(O)C2)c(C#N)c1
target_system: C-RAF (Homo sapiens, UniProt P04049, Y340E/Y341E)
pIC50: 7.96
//
smi: Cc1ccc(NC(=O)c2ccnc(C(C)(C)C#N)c2)cc1-c1cnc(N(C)C)c(C#N)c1
target_system: C-RAF (Homo sapiens, UniProt P04049, Y340E/Y341E)
pIC50: 9.67

Task item: Entry `Cc1ncc(NC(=O)c2cccc(C(F)(F)F)c2)cc1-c1cnc(N2CC(O)C2)c(C#N)c1` , system C-RAF (Homo sapiens, UniProt P04049, Y340E/Y341E): what pIC50 was measured?
Reply: 9.65

Task item: Entry `Cc1ncc(NC(=O)c2ccnc(C(C)(C)C#N)c2)cc1-c1cnc(Oc2ccccn2)c(C#N)c1` , system C-RAF (Homo sapiens, UniProt P04049, Y340E/Y341E): what pIC50 was measured?
Reply: 8.10

Task item: Entry `Cc1ncc(NC(=O)c2cnnc(C(C)(C)C#N)c2)cc1-c1cnc(NC2CCOCC2)c(C#N)c1` , system C-RAF (Homo sapiens, UniProt P04049, Y340E/Y341E): what pIC50 was measured?
Reply: 8.74

Task item: Entry `Cc1ccc(NC(=O)c2cc(C(C)(C)C#N)ccn2)cc1-c1cnc(N2CCOCC2)c(C#N)c1` , system C-RAF (Homo sapiens, UniProt P04049, Y340E/Y341E): what pIC50 was measured?
Reply: 9.73

Task item: Entry `Cc1ncc(NC(=O)c2ccnc(C(C)(C)O)c2)cc1-c1cnc(N2CCOCC2)c(C#N)c1` , system C-RAF (Homo sapiens, UniProt P04049, Y340E/Y341E): what pIC50 was measured?
Reply: 8.80

Task item: Entry `Cc1ccc(C(=O)Nc2cccc(C(F)(F)F)c2)cc1-c1cncc(C#N)c1` , system C-RAF (Homo sapiens, UniProt P04049, Y340E/Y341E): what pIC50 was measured?
Reply: 8.78

Task item: Entry `Cc1ncc(NC(=O)c2ccnc(C(C)(C)C#N)c2)cc1-c1cnc(N2CCO[C@H](C)C2)c(C#N)c1` , system C-RAF (Homo sapiens, UniProt P04049, Y340E/Y341E): what pIC50 was measured?
Reply: 8.92

Task item: Entry `COCCOc1ncc(-c2cc(NC(=O)c3ccnc(C(F)(F)F)c3)cnc2C)cc1C#N` , system C-RAF (Homo sapiens, UniProt P04049, Y340E/Y341E): what pIC50 was measured?
Reply: 8.76

Task item: Entry `Cc1ccc(NC(=O)c2cccc(C(F)(F)F)c2)cc1-c1cc(C#N)cnc1N` , system C-RAF (Homo sapiens, UniProt P04049, Y340E/Y341E): what pIC50 was measured?
Reply: 9.55

Task item: Entry `Cc1ccc(NC(=O)c2cc(C(C)C)on2)cc1-c1cnc(N(C)C)c(C#N)c1` , system C-RAF (Homo sapiens, UniProt P04049, Y340E/Y341E): what pIC50 was measured?
Reply: 9.80

All figures here come from patent US10392404B2.
